test: Metabolic stability in mouse plasma assessed as compound remaining at 10 uM after 24 hrs by LC-MS/MS analysis; format: ADME, cell-free; settings: read-out: Stability
Parameter Measured: remaining at 24 h, 10 µM (%)
The figure you give is taken to be in %; do not add the unit.

Recorded remaining at 24 h, 10 µM, per entry:
INSERT INTO measurements (molecule, result) VALUES
  ('CCc1oc(COc2ccc(F)c(C(N)=O)c2F)nc1-c1ccc(OC)cc1', 100),
  ('CCCc1oc(COc2ccc(F)c(C(N)=O)c2F)nc1-c1ccc(Cl)cc1', 101);

Prompt: Consider the molecule shown here: NC(=O)c1c(F)ccc(OC(CO)c2nc(-c3ccc(C(F)(F)F)cc3)c(Br)o2)c1F (racemic) What is its recorded remaining at 24 h, 10 µM?
Completion: 100

Prompt: Consider the molecule shown here: CC(Oc1ccc(F)c(C(N)=O)c1F)c1nc(-c2ccc(OC(F)(F)F)cc2)c(Br)o1 (racemic) What is its recorded remaining at 24 h, 10 µM?
Completion: 104

* * *

experiment: Half life in Balb/c mouse at 3 mg/kg, iv by LC-MS/MS analysis; assay type: ADME, organism-based; design: dose 3 mg/kg, route intravenous; conditions: in vivo
Parameter Measured: half-life (min)
The figure you give is taken to be in min; do not add the unit.

Recorded half-life, per entry:
INSERT INTO assay_data (compound, result) VALUES
  ('NC(=O)c1c(F)ccc(OC(CO)c2nc(-c3ccc(C(F)(F)F)cc3)c(Br)o2)c1F (racemic)', 127),
  ('CC(Oc1ccc(F)c(C(N)=O)c1F)c1nc(-c2ccc(OC(F)(F)F)cc2)c(Cl)o1 (racemic)', 79),
  ('CCc1oc(COc2ccc(F)c(C(N)=O)c2F)nc1-c1ccc(OC)cc1', 10),
  ('CC(Oc1ccc(F)c(C(N)=O)c1F)c1nc(-c2ccc(C(F)(F)F)cc2)c(Br)o1 (racemic)', 63),
  ('CCCc1oc(COc2ccc(F)c(C(N)=O)c2F)nc1-c1ccc(Cl)cc1', 25);

Consider the additional compound presented here.
Prompt: Consider the compound shown here: CC(Oc1ccc(F)c(C(N)=O)c1F)c1nc(-c2ccc(OC(F)(F)F)cc2)c(Br)o1 (racemic) What is its recorded half-life?
Completion: 53

* * *

The reader will find reported MIC values listed item by item below.
biological target: Cell division protein FtsZ (Staphylococcus aureus); assay: Inhibition of Staphylococcus aureus ATCC 29213 FtsZ-mediated cell division phenotype
The figure you give is taken to be in µg/mL; do not add the unit.

Recorded MIC, per entry:
INSERT INTO assay_data (molecule, parameter_measured, result) VALUES
  ('C=CCc1oc(COc2ccc(F)c(C(N)=O)c2F)nc1-c1ccc(Cl)cc1', 'MIC', 0.06),
  ('CC(=O)OCC(Oc1ccc(F)c(C(N)=O)c1F)c1nc(-c2ccc(C(F)(F)F)cc2)c(Br)o1 (racemic)', 'MIC', 0.5),
  ('NC(=O)c1c(F)ccc(OCc2nc(-c3ccc(O)cc3)co2)c1F', 'MIC', 8);

Prompt: Consider the molecule shown here: NC(=O)c1c(F)ccc(OCc2nc(-c3ccc(Cl)cc3)c(CCCO)o2)c1F What is its recorded MIC?
Completion: 2

* * *

experiment: Kinetic solubility of the compound in PBS buffer at pH 7.4 after 24 hrs by turbidimetric method; format: physicochemical; settings: read-out: Kinetic_solubility
Mark Criterion met for reported solubility kinetic at 24 h of 100 µg/mL or greater; mark Criterion not met for anything smaller.

Prompt: Test whether the molecule NC(=O)c1c(F)ccc(OCc2nc(-c3ccc(C(F)(F)F)cc3)c(Br)o2)c1F records solubility kinetic at 24 h of 100 µg/mL or higher.
Completion: Criterion not met

Prompt: Test whether the molecule NC(=O)c1c(F)ccc(OC(COP(=O)(O)O)c2nc(-c3ccc(C(F)(F)F)cc3)c(Br)o2)c1F (racemic) records solubility kinetic at 24 h of 100 µg/mL or higher.
Completion: Criterion met

Prompt: Test whether the molecule CNCCNC(=O)OCC(Oc1ccc(F)c(C(N)=O)c1F)c1nc(-c2ccc(C(F)(F)F)cc2)c(Br)o1 (racemic) records solubility kinetic at 24 h of 100 µg/mL or higher.
Completion: Criterion met

Prompt: Test whether the molecule CC(=O)OCC(Oc1ccc(F)c(C(N)=O)c1F)c1nc(-c2ccc(C(F)(F)F)cc2)c(Br)o1 (racemic) records solubility kinetic at 24 h of 100 µg/mL or higher.
Completion: Criterion not met

Prompt: Test whether the molecule NC(=O)c1c(F)ccc(OC(CCC(=O)O)c2nc(-c3ccc(C(F)(F)F)cc3)c(Br)o2)c1F (racemic) records solubility kinetic at 24 h of 100 µg/mL or higher.
Completion: Criterion met

Prompt: Test whether the molecule NC(=O)c1c(F)ccc(OC(CCCO)c2nc(-c3ccc(C(F)(F)F)cc3)c(Br)o2)c1F (racemic) records solubility kinetic at 24 h of 100 µg/mL or higher.
Completion: Criterion not met

Values compiled from ChEMBL document CHEMBL3098047.
